# System: SNB-75 CNS
# protocol details: NCI-60 one-dose screen, 48 h
# protocol conditions: 10 µM unless noted
Compounds without any hit were thinned out: in the full panel of roughly 83,000, 20% have a hit. Calls of active or inactive are those of the source. The calls were made as follows: active = growth percent below 10; inactive = the rest.
Labels: Y = active, N = inactive

compound | discrete label
CCCCCCCCCCCCCCCC1=NCCN1 | N
CC1=C(/C=C/C(C)=C/C=C(C(=O)O)\C(C)=C\C(=O)O)C(C)(C)CCC1 | N
CCC1=CC2CN(C1)Cc1c([nH]c3ccccc13)[C@@](C(=O)OC)(c1cc3c(cc1OC)N(C)[C@H]1[C@@](O)(C(=O)OC)[C@H](OC(C)=O)[C@]4(CC)C=CCN5CC[C@]31[C@@H]54)C2 (stereo partly specified) | Y
C#CCO[C@H]1CC[C@H](OCC#C)[C@@H]2[C@H]1[C@H]1C[C@@H]3[C@@]4(C)CCC[C@@](C)(C(=O)OC)[C@@H]4CC[C@@]23C=C1C(C)C | N
CS(=O)(=O)c1ccc(C(=O)N/N=C/c2ccccc2O)cc1 | N
O=C(N/N=C/c1ccccc1O)c1ccncc1 | N
C=C[C@H]1CCC/C=C/[C@@H]2C[C@H](O)C[C@H]2[C@H](O)/C=C/C(=O)O1 | N
NC(=S)N1N=C(c2ccc(Cl)cc2)CC1c1cc2ccccc2[nH]c1=O (stereo unspecified) | N
O=c1c2cc(Br)cc(Br)c2nc(-c2ccc(Cl)cc2)n1/N=C\c1ccccc1F | N
CC1=C(O)C(=O)CC1 | N
NC(=O)c1ccc[n+](Cc2ccccc2)c1 | N
O=C(CSc1nc2c(n1Nc1ccccc1)-c1ccccc1SC2)Nc1nccs1 | N
O=S(=O)(Nc1ccc2ccccc2c1)N1CCCCC1 | N
O=C(Nc1ccccc1)c1cc2ccccc2s1 | N
Cc1cccc(N=NC(=S)NNc2cccc(C)c2)c1 | N
c1ccc(-c2nnn(-c3ccccc3)n2)cc1 | N
COc1cc(NC(=O)CSc2nc3ccc(Cl)cc3c(=O)n2-c2ccccc2)cc(OC)c1OC | N
COc1ccc(-c2cc(-c3cn(-c4cccc(Cl)c4)nc3-c3ccc(OC)cc3)[nH]c(=S)n2)cc1 | N
COc1ccc(C2NC(=O)c3cc4c(cc3N2)OCO4)cc1 (stereo unspecified) | Y
O=C(N/N=C/c1ccc([N+](=O)[O-])cc1)c1ccccc1Nc1ccnc(C(F)(F)F)c1 | N
COc1ccc2c(c1)sc1nc(-c3ccccc3)c(-c3cccc4ccccc34)n12 | N

====

# System: SF-295 CNS
# protocol details: NCI-60 one-dose screen, 48 h (100 = growth as untreated, 0 = no growth, -100 = all killed)
# protocol conditions: 10 µM unless noted
# Experimental: Cells are grown in 96 well plates and exposed to the test compound for 48 hours. Compounds are tested at a single concentration, which is 10^-5 M for most compounds. The reported endpoint is percent growth (GI% or GIPRCNT), where numbers from 0 - 100% represent growth inhibition, and numbers from -100% - 0 represent cell death. For example, a value of 40 represents 60% growth inhibition. A value of 0 means no net growth occurred over the course of the experiment. […]
Compounds without any hit were thinned out: in the full panel of roughly 83,000, 20% have a hit. The source made the active and inactive calls. The calls were made as follows: active = growth percent below 10; inactive = the rest.
Each record here notes measured growth.

molecule | tested target | growth
O=C(/C=C/c1ccco1)c1ccccc1O | SF-295 CNS | 110% (inactive)
CC(C)(C)c1ccc(C(=O)Nc2sc3cc(O)ccc3c2C(N)=O)cc1 | SF-295 CNS | 63.5% (inactive)
CN1C(=O)NC(Cc2c[nH]c3c(Cl)cccc23)C1=O (stereo unspecified) | SF-295 CNS | 109% (inactive)
O=C1SCN(Cc2ccccc2)CN1Cc1ccccc1 | SF-295 CNS | 110% (inactive)
O=C1Nc2ccc(Cl)cc2/C1=C\c1c(-c2ccc(F)cc2)nc2ccccn12 | SF-295 CNS | -41% (active)
CC(C)(CCc1ccccn1)C(=O)CCCc1ccccn1 | SF-295 CNS | 120% (inactive)

====

# Tested on: NCI-H226 lung
# protocol details: NCI-60 one-dose screen, 48 h
# protocol conditions: 10 µM unless noted
# Procedure: Growth inhibition of the NCI-H226 human Non-Small Cell Lung tumor cell line is measured as a screen for anti-cancer activity. Cells are grown in 96 well plates and exposed to the test compound for 48 hours. Compounds are tested at a single concentration, which is 10^-5 M for most compounds. The reported endpoint is percent growth (GI% or GIPRCNT), where numbers from 0 - 100% represent growth inhibition, and numbers from -100% - 0 represent cell death. […]
The panel holds about 83,000 compounds, 20% with a hit somewhere; the sample as a whole holds those more often. Active and inactive are the calls of the source. The calls were made as follows: active = growth percent below 10; inactive = the rest.
Labels: T (active), F (inactive)

compound | discrete label
O=C(NO)c1ccc(CNc2cccc3nc(C4CC4)n(-c4ccccc4)c(=O)c23)cc1 | F
COc1ccc2nc(-c3ccc(-c4noc(-c5ccc(Cl)cc5)n4)cc3)[nH]c2c1 | F
NC(=O)c1ccc[n+](Cc2ccccc2)c1 | F
COc1cccc(-c2cc(-c3cccs3)c(C#N)c(=O)[nH]2)c1 | F
CC(C)[C@@H]1C=C2CC[C@H]3[C@](C)(CN)CCC[C@]3(C)[C@H]2CC1 | F
O=C(O)c1ccccc1Oc1cc(-c2ccco2)nc(OCCN2CCOCC2)n1 | F
COc1ccc(CNc2c3ccccc3nc3ccc(OC)cc23)cc1 | F
S=C(Cc1ccccc1)N1CCN(c2ccccc2Cl)CC1 | F
COc1ccc(/C(C)=N/NC(=O)CSc2nc3ccccc3c(=O)n2CCc2ccc(S(N)(=O)=O)cc2)cc1 | F
Clc1ccc(-c2cnc3c(-c4ccnc(N5CCNCC5)c4)cnn3c2)cc1 | F
O=C(/C=C/c1ccco1)c1ccccc1O | F
Cc1c2c(cc3c1[nH]c1ccccc13)C=NCC2 | F
COC(=O)[C@H](Cc1cn(C)cn1)NC(=O)[C@H](CC(C)C)NC(=O)Nc1cc(C(F)(F)F)cc(C(F)(F)F)c1 | T
COc1ccc(C(=O)N2N=C(c3ccc(F)cc3)CC2c2cn(-c3ccccc3)nc2-c2ccccc2)cc1 (centres undefined) | F
CC(C)N(C(=S)SSC(=S)N(C(C)C)C(C)C)C(C)C | F
O=S1(=O)NCCCN1CCNc1nccc(-c2c(-c3cccc(O)c3)nc3sccn23)n1 | F
COc1ccc(-c2nc3ccccc3n3cccc23)cc1 | F
COc1cc(CN(c2ccc(C)cc2)C2OC(=O)c3ccccc32)cc(OC)c1OC (centres undefined) | F
COc1ccccc1-[n+]1cc(-c2ccc(-c3ccccc3)cc2)n2c1CCCCC2 | F
Nc1c(C(=O)Nc2ccccc2)sc2nc3c(cc12)C(=O)CCC3 | F
O=C1OC(/C=C/c2ccccc2)=NC/1=C/c1ccccc1[N+](=O)[O-] | F
CC1(C)OC2OC3C(CN)OC(c4ccccc4)OC3C2O1 (centres undefined) | F
Oc1ccc(-c2nnc3c4[nH]ccc4ncn23)cc1 | F
CC(C)CC1NC(=O)C(CC(C)C)N(CO)C1=O (centres undefined) | F
CCOC(=O)c1cc(N)nc2ccccc12 | F
CS(=O)(=O)c1ccc(C(=O)N/N=C/c2ccccc2Cl)cc1 | F
CCCCCCCCN=C(NCCCCCCCC)SCc1cccc2ccccc12 | T
COc1cccc(-c2nc3sccn3c2-c2ccnc(NCCN3CCCN(C)S3(=O)=O)n2)c1 | F
CCCNCCC(C)=O | F
CCN(CCC#N)c1ccccc1 | F
CCCCCCCCCCCCCCCC1=NC(C)(C)CN1C(C)C | T
C[C@@H]1CC2C3CCC4=CC(=O)C=C[C@]4(C)[C@@]3(Cl)[C@@H](O)C[C@]2(C)[C@@]1(OC(=O)c1ccco1)C(=O)CCl (some centres undefined) | F
ClCc1c(Cl)c(Cl)c(Cl)c(CCl)c1Cl | F
NC(N)=N/N=C/c1cccc(Cl)c1Cl | F
CC(C)(C)OC[C@@H]1N=C(c2ccc(Br)cc2)Nc2nc3ccccn3c2C1=O | F
C[N+](C)(C)CCCCCCCCCC[N+](C)(C)C | F
O=c1c2cc(Cl)ccc2oc2ccc(OCCCCCN3CCCCCC3)cc12 | F
CC(=O)CC(c1ccc([N+](=O)[O-])cc1)c1c(O)c2ccccc2oc1=O (centres undefined) | F
Cc1cc(-c2ccccc2)on1 | F
O=C(CC(=O)C(F)(F)C(F)(F)C(F)(F)F)c1cc2ccccc2o1 | F
Cc1nn(-c2cccc(Cl)c2)c(C)c1N=Nc1ccc(Br)cc1 | F
CC(=O)OC[C@H]1O[C@@H](n2c(=O)cc(N)[nH]c2=O)C(OC(C)=O)[C@@H]1OC(C)=O (some centres undefined) | F
C#CCNc1nc(NCCNC(=O)CCl)nc(N(C)CCCCc2ccccc2)n1 | F
C=C1C(=O)O[C@H]2[C@H]1CC/C(COC(=O)NCc1ccc(Cn3c(=O)sn(CCCl)c3=O)cc1)=C\CC[C@@]1(C)O[C@@H]21 | F

Ref: PubChem BioAssay (NCI)
